Origin of the recorded values: ChEMBL document CHEMBL1147331

Assay: Selectivity index, ratio of ED50 for human COL1 cells to ED50 for chloroquine-resistant Plasmodium falciparum W2
Assay type: toxicity, cell-based
Details: read-out: Ratio ED50
Could you please report measured selectivity ratio for the items listed next?
Answers are plain numbers.

Examples from the recorded data:
{"molecule": "COc1ccc2cc1Oc1ccc(cc1)C[C@H]1c3c(cc(OC)c(OC)c3Oc3cc4c(cc3OC)CCN(C)[C@@H]4C2)CCN1C [OBABERINE]", "selectivity ratio": 50}
{"molecule": "COc1ccc2cc1Oc1ccc(cc1)C[C@H]1c3c(cc4c(c3Oc3cc5c(cc3OC)CCN[C@@H]5C2)OCO4)CCN1C", "selectivity ratio": 24}
{"molecule": "OC(c1cc(C(F)(F)F)nc2c(C(F)(F)F)cccc12)C1CCCCN1 (centres undefined) [MEFLOQUINE]", "selectivity ratio": 833}
{"molecule": "COc1ccc2cc1Oc1ccc(cc1)C[C@H]1c3cc(c(OC)cc3CCN1C)Oc1c(OC)c(OC)cc3c1[C@@H](C2)N(C)CC3", "selectivity ratio": 192}
{"molecule": "COc1ccc2cc1Oc1ccc(cc1)C[C@H]1c3c(cc(OC)c4c3Oc3cc5c(cc3O4)CCN=C5C2)CCN1C", "selectivity ratio": 20}
{"molecule": "COc1ccc2cc1Oc1ccc(cc1)C[C@H]1c3c(cc4c(c3Oc3cc5c(cc3OC)CCN(C)[C@@H]5C2)OCO4)CCN1C [CEPHARANTHINE]", "selectivity ratio": 31}

Batch request: selectivity ratio for each of the following molecules.
1. COc1ccc2cc1Oc1ccc(cc1)C[C@H]1c3c(cc(OC)c(O)c3Oc3cc4c(cc3OC)CCN[C@@H]4C2)CCN1C
2. COc1ccc2cc1Oc1ccc(cc1)C[C@H]1c3c(cc(OC)c4c3Oc3cc5c(cc3O4)CCN(C)[C@@H]5C2)CCN1C
3. COc1ccc2cc1Oc1ccc(cc1)C[C@H]1c3cc(c(OC)cc3CCN1C)Oc1c(O)c(OC)cc3c1[C@@H](C2)N(C)CC3

// result
46
14
48

----------
Experiment: in vitro
Details: human, A431 cells
Description: Selectivity index, ratio of ED50 for human A431 cells to ED50 for chloroquine-sensitive Plasmodium falciparum D6
Friendly reminder: selectivity ratio below 70 is met, at or above is not met.

{"chemical.string": "COc1ccc2cc1Oc1ccc(cc1)C[C@H]1c3c(cc4c(c3Oc3cc5c(cc3OC)CCN[C@@H]5C2)OCO4)CCN1C", "class.name": "met"}
{"chemical.string": "COc1ccc2cc1Oc1ccc(cc1)C[C@H]1c3c(cc(OC)c(OC)c3Oc3cc4c(cc3OC)CCN(C)[C@@H]4C2)CCN1C", "class.name": "met"}
{"chemical.string": "COc1ccc2cc1Oc1ccc(cc1)C[C@H]1c3cc(c(OC)cc3CCN1C)Oc1c(OC)c(OC)cc3c1[C@@H](C2)N(C)CC3", "class.name": "met"}
{"chemical.string": "COc1ccc2cc1Oc1ccc(cc1)C[C@H]1c3c(cc(OC)c4c3Oc3cc5c(cc3O4)CCN(C)[C@@H]5C2)CCN1C", "class.name": "met"}
{"chemical.string": "COc1ccc2cc1Oc1ccc(cc1)C[C@H]1c3c(cc(OC)c(O)c3Oc3cc4c(cc3OC)CCN(C)[C@@H]4C2)CCN1C", "class.name": "not met"}

Attention now turns to another entry.
// query Given the entry `COc1ccc2cc1Oc1ccc(cc1)C[C@H]1c3c(cc(OC)c(O)c3Oc3cc4c(cc3OC)CCN[C@@H]4C2)CCN1C` , would its reported selectivity ratio be below 70?
// result not met
